# System name: S1P3-R (Homo sapiens, UniProt Q99500)
# Sequence (Q99500 whole entry): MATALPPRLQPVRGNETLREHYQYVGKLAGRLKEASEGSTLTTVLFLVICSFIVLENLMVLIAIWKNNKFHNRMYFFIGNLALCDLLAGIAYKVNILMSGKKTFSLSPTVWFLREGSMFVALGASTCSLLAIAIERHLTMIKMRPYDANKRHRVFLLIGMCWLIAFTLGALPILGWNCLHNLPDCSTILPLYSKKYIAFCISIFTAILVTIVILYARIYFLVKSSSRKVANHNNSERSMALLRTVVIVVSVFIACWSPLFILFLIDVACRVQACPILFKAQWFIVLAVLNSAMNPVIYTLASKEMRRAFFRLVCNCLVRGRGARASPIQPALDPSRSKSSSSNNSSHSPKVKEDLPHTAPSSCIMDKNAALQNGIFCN
# Protocol: S1P3-R agonist assay, CHO NFAT-BLA reporter
# Format: cell-based
Assay metric: activity at S1P3-R (in words)

The following molecules have reported results that may help.
[
  {
    "Molecule": "CCCc1cc(C(=O)NC2CCCCC2)no1 [Compd 1c]",
    "System name": "S1P3-R (Homo sapiens, UniProt Q99500)",
    "activity at S1P3-R (in words)": "complete loss of potency"
  },
  {
    "Molecule": "O=C(c1cc(C2CC2)on1)N(Cc1ccccc1)c1ccccc1 [Compd 7k]",
    "System name": "S1P3-R (Homo sapiens, UniProt Q99500)",
    "activity at S1P3-R (in words)": "drastic loss in potency"
  },
  {
    "Molecule": "O=C(c1ccc(C2CC2)o1)N(C1CCCCC1)C1CCCCC1 [Compd 9b]",
    "System name": "S1P3-R (Homo sapiens, UniProt Q99500)",
    "activity at S1P3-R (in words)": "inactive"
  },
  {
    "Molecule": "CCCc1cc(C(=O)N(c2ccccc2)C2CCCCC2)no1 [Compd 1d]",
    "System name": "S1P3-R (Homo sapiens, UniProt Q99500)",
    "activity at S1P3-R (in words)": "complete loss of potency"
  }
]

activity at S1P3-R (in words) for O=C(c1noc2ccccc12)N(C1CCCCC1)C1CCCCC1 [Compd 9c] ? inactive

activity at S1P3-R (in words) for O=C(c1cc(C2CC2)on1)N(Cc1ccccc1)c1ccccn1 [Compd 7l] ? drastic loss in potency

activity at S1P3-R (in words) for O=C(c1coc(C2CC2)n1)N(C1CCCCC1)C1CCCCC1 [Compd 9a] ? inactive
